Where do the numbers come from? From ChEMBL document CHEMBL1201862.

- Test system: 786-0
- measurement_notes: NCI tumour cell line growth inhibition, 48 h
Calls of active or inactive are those of the source. Rule as the data show it: active = GI50 up to about 1.1 µM and inactive = higher.
Documented GI50 across a set of compounds
assay_endpoint: GI50

compound="Cc1ccccc1OC(C)C(=O)NN1C(=O)CSC1c1ccc(Cl)cc1 (stereo not drawn)" result="18.2 µM (inactive)"
compound=CS/C1=C(\c2ccc(C)cc2)N(c2ccccc2)C(=O)C(=O)N(c2ccccc2)/C(c2ccc(C)cc2)=C(/SC)SS1 result="> 100 µM (inactive)"
compound=O=C(/C=C/c1ccccc1O)/C=C/c1ccccc1O result="1.69 µM (inactive)"
compound="COC1OC(C(C)O)C2OC(C)(C)OC12 (stereo not drawn)" result="> 100 µM (inactive)"
compound=CNC(=O)N(CCC#N)CCN(C(=O)NC)c1ccccc1 result="> 100 µM (inactive)"
compound=CSC(=N/C=C/c1ccccc1)SC result="> 100 µM (inactive)"
compound=O=C1C(c2ccccc2)=C(c2ccccc2)C1(Cl)Cl result="2.69 µM (inactive)"
compound=Oc1cc(-c2ccc(Oc3ccccc3)cc2)nc2cc3c(cc12)OCO3 result="> 100 µM (inactive)"
compound=CCOc1ccccc1NC(=O)CCc1nnc(S)[nH]1 result="> 100 µM (inactive)"
compound="O=C(O)C1Cc2[nH]cnc2CN1 (stereo not drawn)" result="> 100 µM (inactive)"
compound=CCc1nc(N)c2nc(-c3ccc(C#N)cc3)oc2n1 result="> 100 µM (inactive)"
compound=c1ccc2c(c1)[nH]c1c2cc[n+]2cc3c(cc12)CCCC3 result="2.28 µM (inactive)"
compound=O=c1c2cccnc2[nH]c2ccc3cn[nH]c3c12 result="> 10 µM (inactive)"
compound=CCCCC1=NNC(=O)C1 result="> 100 µM (inactive)"
compound=CN(C)c1ccc(C(c2ccc(Cl)cc2)c2ccc(N(C)C)cc2)cc1 result="> 100 µM (inactive)"
compound=CN1CN(c2ccccc2)C2(CCN(Cc3nc4ccccc4s3)CC2)C1=O result="17.2 µM (inactive)"
compound="CC1SC2(CCCCC2)N(NC(=O)CSc2nc3ccc(Cl)cc3c(=O)n2-c2ccccc2)C1=O (stereo not drawn)" result="18.2 µM (inactive)"
compound="NC(CO)C(=O)NCC(=O)O (stereo not drawn)" result="> 100 µM (inactive)"
compound="COc1cc(CC(C)N)ccc1O (stereo not drawn)" result="> 100 µM (inactive)"
compound="COc1ccc(C2C3=C(N=C4SC(C(C)=O)=C(C)N42)c2ccccc2CC3)cc1 (stereo not drawn)" result="> 100 µM (inactive)"
compound=Cn1c(=S)c2nc(SCCN3C(=O)c4ccccc4C3=O)[nH]c2n(C)c1=O result="> 100 µM (inactive)"
compound=Cc1cc(C)nc(NS(=O)(=O)c2ccc(Nc3c4ccc(Cl)cc4nc4c(C(=O)Nc5ccc(S(=O)(=O)N=C(N)N)cc5)cccc34)cc2)n1 result="> 100 µM (inactive)"
compound=Cc1nc(-c2nc(C)c(C(=O)/C=C/c3ccc([N+](=O)[O-])cc3)s2)sc1C(=O)/C=C/c1ccc([N+](=O)[O-])cc1 result="> 100 µM (inactive)"

* * *

- Tested on: SN12C
- measurement_notes: NCI tumour cell line growth inhibition, 48 h
Calls of active or inactive are those of the source. No stated cut-off is given here; in the data, active = GI50 up to about 1.1 µM and inactive = higher.
Possible outcomes: active, inactive

compound=C(=N\c1ccc(-c2nc3ccccc3[nH]2)cc1)/c1cccs1 cat=inactive
compound="CCOC(=O)C12CCC(=O)C=C1[C@@H](C)C(=O)CC2 (stereo partly specified)" cat=inactive
compound=CCOC(=O)N1CCN(C=S)CC1 cat=inactive
compound=CC[C@@H]1CC[C@@H]2[C@H](CC[C@]3(C)[C@@H](OC(C)=O)CC[C@@H]23)[C@H]1COC(C)=O cat=inactive
compound="COC(=O)C(=O)C(C(=O)C(=O)Nc1ccc(C)cc1)c1nc2ccc(C(=O)c3ccccc3)cc2nc1O (stereo unspecified)" cat=inactive
compound="COC1=C2CC(C)CC(OC)C(O)C(C)/C=C(\\C)C(OC(N)=O)C(OC)/C=C\\C=C(/C)C(=O)NC(=C(/C=N/N3CCCCC3)C1=O)C2=O (stereo unspecified)" cat=inactive
compound=Cc1ccccc1CN1CC2=C(CCN(Cc3ccccc3)C2=O)N2CCN=C12 cat=inactive
compound=Cc1cc2c(C)nn(Cc3ccccc3)c2c(C(N)=O)c1C cat=inactive
compound=N=c1nc2n(cc1F)[C@@H]1O[C@H](CO)[C@@H](O)[C@@H]1O2 cat=inactive
compound="COC(CN(C(=O)c1ccccc1)C1CCC2(SCCS2)c2[nH]c3ccccc3c21)OC (stereo unspecified)" cat=inactive
compound="CC1CCC2C(C)C(=O)OC2C2(C)C(=O)C=CC12 (stereo unspecified)" cat=inactive
compound=CCCCC1=NNC(=O)C1 cat=inactive
compound=CC(C)(C)c1cc(C(OCCl)(C(F)(F)F)C(F)(F)F)c2c(c1)C(C(F)(F)F)(C(F)(F)F)OC21c2ccccc2C(=O)c2ccccc21 cat=inactive
compound=CCOC(=O)Cc1cc(=O)oc2cc(O)ccc12 cat=inactive
compound="O=NN(CCF)C(=O)NC1CC2CCC1C2 (stereo unspecified)" cat=inactive
compound=CO[C@@H]1/C=C\C=C(/C)C(=O)NC2=CC(=O)C(NCCN(C)C)=C(C[C@@H](C)C[C@@H](OC)[C@@H](O)[C@H](C)/C=C(\C)[C@H]1OC(N)=O)C2=O cat=active
compound="COc1cc(/C=C2/SC(c3ccccc3)N(c3ccc(NC(C)=O)cc3)C2=O)cc(OC)c1OC (stereo unspecified)" cat=inactive
compound="Cn1c(=O)oc2cc(C3CCC(=O)N3Cc3ccc(Cl)cc3)ccc21 (stereo unspecified)" cat=inactive
compound=c1ccc2c(c1)Nc1nc3nonc3nc1N2 cat=inactive
compound=Cc1c2c(c(C)c3c1[nH]c1ccccc13)CN(C)CC2 cat=inactive
compound="CCCCCCCCCCCC1CC(=O)NCCCN(C)CCCCN(C)CCCN1C (stereo unspecified)" cat=inactive
compound=CCn1nc(C)c2c1C(=O)NCC(=O)N2 cat=inactive
compound="COc1cc(/C=C2\\C(=O)N(c3cccc([N+](=O)[O-])c3)C(c3ccccc3)S2(=O)=O)cc(OC)c1OC (stereo unspecified)" cat=inactive
compound=COC(=O)/C=C\C(C#N)(C#N)/N=C/c1ccc(Br)s1 cat=inactive
compound=CCCCSC1=N/C(=C\c2ccc(N(C)C)cc2)C(=O)N1 cat=inactive
compound=c1ccc(CNc2ccc3[nH]c4cnccc4c3c2)cc1 cat=inactive
compound="C/C(=N\\NC(=N)N)C(CN1CCCCC1)C(c1ccccc1)c1c(O)c2ccccc2oc1=O (stereo unspecified)" cat=inactive
compound="NC(CCCCCP(=O)(c1ccccc1)C1C=CC=CC1)C(=O)O (stereo unspecified)" cat=inactive
compound=CC(C)(O)[C@@H]1CC[C@@]2(C)CCC[C@H](O)[C@H]2C1 cat=inactive
compound=CCc1nnc(CC)n1-n1c(Cc2ccccc2)n[nH]c1=O cat=inactive
compound="CCCCCCCCCCCCCCCC(=O)OCC1OC(OC)C(NC(=O)N(CCCl)N=O)C(O)C1O (stereo unspecified)" cat=inactive
compound=COc1cc2c(c(OC)c1)/C(=C/Sc1ccccc1)C(=O)N(C(C)(C)C)C2 cat=inactive
compound=Nc1nc(Cl)c(/C=N\O)c(NCC2(CO)CC(=O)C2)n1 cat=inactive
compound=O=C(Cc1nc2ccccc2c(=O)n1-c1c(Cl)cccc1Cl)c1ccncc1 cat=inactive
compound="CCCCCCCCOCC(O)COC(=O)CCCCCCC (stereo unspecified)" cat=inactive
compound=O=C(NN=C(c1ccccc1)c1ccccc1)/C(O)=C/C(=O)c1ccc(Cl)cc1 cat=inactive
